Source: PubChem BioAssay AID1918998

tested on: 521955-158-R2-J5-PDC complex spheroid growth; experiment: Anticancer human tumor 521955-158-R2-J5-PDC patient-derived pancreatic carcinoma cell line growth inhibition [AhR]; details: second compound 10 µM; first compound 10 µM; hits give low values
PROPERTY NAME: viability, T/C (%)
# value in %; strip the unit string

Give the reported viability, T/C for COc1cc(C2c3cc4c(cc3C(OC3OC5COC(C)OC5C(O)C3O)C3COC(=O)C23)OCO4)cc(OC)c1O (stereo not drawn) + Cc1cncc(-c2nc(NCCc3c[nH]c4ccccc34)c3ncn(C(C)C)c3n2)c1 (system: 521955-158-R2-J5-PDC complex spheroid growth). 25.1

Give the reported viability, T/C for CC1COCCN1c1cc(C2(S(C)(=N)=O)CC2)nc(-c2ccnc3[nH]ccc23)n1 (stereo not drawn) + Cc1ccccc1N=Nc1ccc(NC(=O)c2ccnn2C)c(C)c1 (system: 521955-158-R2-J5-PDC complex spheroid growth). 16.1

Give the reported viability, T/C for COc1cc(Nc2ncc3c(n2)-c2ccc(Cl)cc2C(c2c(F)cccc2OC)=NC3)ccc1C(=O)O + Cc1ccccc1N=Nc1ccc(NC(=O)c2ccnn2C)c(C)c1 (system: 521955-158-R2-J5-PDC complex spheroid growth). 90.7

---

I'd be grateful if you could share measured viability, T/C for these entries.
test system: 521955-158-R2-J5-PDC complex spheroid growth; experiment: Anticancer human tumor 521955-158-R2-J5-PDC cell line growth inhibition [AhR]; conditions: second compound 3.16 µM; first compound 0.0316 µM; hits give low values;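 note: spheroids mix tumor cells with HUVEC endothelium and human MSC stroma; luminescence taken as viability surrogate after a week of drug exposure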
# value in %; strip the unit string

Give the reported viability, T/C for NS(=O)(=O)OCC1CC(n2ccc3c(NC4CCc5ccccc54)ncnc32)CC1O (stereo not drawn) + CC(CO)NC(=O)c1cc(-c2ccc(Cl)cc2)nn(-c2cnn(C)c2)c1=O (system: 521955-158-R2-J5-PDC complex spheroid growth). 85.5

Give the reported viability, T/C for NS(=O)(=O)OCC1CC(n2ccc3c(NC4CCc5ccccc54)ncnc32)CC1O (stereo not drawn) + Cc1ccccc1N=Nc1ccc(NC(=O)c2ccnn2C)c(C)c1 (system: 521955-158-R2-J5-PDC complex spheroid growth). 137

Give the reported viability, T/C for O=C(c1cc(Cc2n[nH]c(=O)c3ccccc23)ccc1F)N1CCN(C(=O)C2CC2)CC1 + CC(CO)NC(=O)c1cc(-c2ccc(Cl)cc2)nn(-c2cnn(C)c2)c1=O (system: 521955-158-R2-J5-PDC complex spheroid growth). 91.9

---

tested on: 521955-158-R2-J5-PDC complex spheroid growth; experiment: Anticancer human tumor 521955-158-R2-J5-PDC cell line growth inhibition [AhR]; details: second compound 10 µM; first compound 10 µM; active = viability on the fitted dose curve at most 10% of control; inactive = the rest;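 note: spheroids mix tumor cells with HUVEC endothelium and human MSC stroma; luminescence taken as viability surrogate after a week of drug exposure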
Hello, when you answer, please use one of the following outcomes: 1 for active, -1 for inactive

Hello, I am checking results. What call was entered for Nc1ccccc1NC(=O)c1ccc(CNC(=O)OCc2cccnc2)cc1 + Cc1cncc(-c2nc(NCCc3c[nH]c4ccccc34)c3ncn(C(C)C)c3n2)c1 ? 1

Hello, I am checking results. What call was entered for NS(=O)(=O)OCC1CC(n2ccc3c(NC4CCc5ccccc54)ncnc32)CC1O (stereo unspecified) + Cc1cncc(-c2nc(NCCc3c[nH]c4ccccc34)c3ncn(C(C)C)c3n2)c1 ? -1

Hello, I am checking results. What call was entered for O=C(c1cc(Cc2n[nH]c(=O)c3ccccc23)ccc1F)N1CCN(C(=O)C2CC2)CC1 + Cc1cncc(-c2nc(NCCc3c[nH]c4ccccc34)c3ncn(C(C)C)c3n2)c1 ? -1

Hello, I am checking results. What call was entered for CC1(C)CCC(CN2CCN(c3ccc(C(=O)NS(=O)(=O)c4ccc(NCC5CCOCC5)c([N+](=O)[O-])c4)c(Oc4cnc5[nH]ccc5c4)c3)CC2)=C(c2ccc(Cl)cc2)C1 + Cc1cncc(-c2nc(NCCc3c[nH]c4ccccc34)c3ncn(C(C)C)c3n2)c1 ? -1

Hello, I am checking results. What call was entered for O=C(C=Cc1cccc(S(=O)(=O)Nc2ccccc2)c1)NO + CC(CO)NC(=O)c1cc(-c2ccc(Cl)cc2)nn(-c2cnn(C)c2)c1=O ? -1

Hello, I am checking results. What call was entered for CC(C)c1c(-c2ccccc2)nc2c(C#N)c[nH]n2c1=O + Cc1cncc(-c2nc(NCCc3c[nH]c4ccccc34)c3ncn(C(C)C)c3n2)c1 ? -1
